# system: EGFR L858R/T790M/C797S (Homo sapiens, UniProt P00533, C797S/L858R/T790M)
# Sequence (P00533 25-1210 T790M/C797S/L858R): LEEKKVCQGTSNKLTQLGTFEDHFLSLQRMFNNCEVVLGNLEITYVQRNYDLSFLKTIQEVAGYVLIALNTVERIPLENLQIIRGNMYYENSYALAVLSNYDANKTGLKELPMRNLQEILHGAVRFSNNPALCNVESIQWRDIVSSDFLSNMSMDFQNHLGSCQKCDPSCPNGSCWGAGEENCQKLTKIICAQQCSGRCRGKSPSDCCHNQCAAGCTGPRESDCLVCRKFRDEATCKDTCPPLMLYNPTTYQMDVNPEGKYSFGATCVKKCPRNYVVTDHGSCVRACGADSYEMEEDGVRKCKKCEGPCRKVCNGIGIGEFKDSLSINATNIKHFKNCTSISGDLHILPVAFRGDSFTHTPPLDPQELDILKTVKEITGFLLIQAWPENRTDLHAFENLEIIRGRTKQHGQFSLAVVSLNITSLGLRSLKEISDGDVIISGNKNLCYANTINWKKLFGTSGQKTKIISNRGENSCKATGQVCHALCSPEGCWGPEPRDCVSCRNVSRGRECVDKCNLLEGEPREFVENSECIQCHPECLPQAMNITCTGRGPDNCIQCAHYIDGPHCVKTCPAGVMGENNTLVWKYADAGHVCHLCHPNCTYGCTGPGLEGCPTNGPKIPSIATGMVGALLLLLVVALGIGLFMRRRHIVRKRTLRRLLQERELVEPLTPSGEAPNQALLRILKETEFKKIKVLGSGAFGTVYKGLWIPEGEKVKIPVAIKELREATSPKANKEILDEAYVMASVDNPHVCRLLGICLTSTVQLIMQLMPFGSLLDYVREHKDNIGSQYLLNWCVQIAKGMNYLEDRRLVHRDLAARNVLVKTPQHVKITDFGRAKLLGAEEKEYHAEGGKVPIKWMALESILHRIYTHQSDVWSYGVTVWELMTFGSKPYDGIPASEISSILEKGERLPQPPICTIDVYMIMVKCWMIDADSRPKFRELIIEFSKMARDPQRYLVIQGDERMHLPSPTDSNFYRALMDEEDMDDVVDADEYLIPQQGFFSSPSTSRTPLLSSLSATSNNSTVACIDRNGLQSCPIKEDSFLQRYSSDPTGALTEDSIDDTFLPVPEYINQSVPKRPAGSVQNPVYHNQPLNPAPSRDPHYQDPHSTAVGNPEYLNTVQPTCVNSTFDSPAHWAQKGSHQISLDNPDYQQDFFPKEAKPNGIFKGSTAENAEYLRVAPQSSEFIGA
# assayComment: Biochemical EGFR kinase inhibition assay (Lance Ultra TR-FRET), triple mutant L858R/T790M/C797S
# conditionParameters: IC50 L858R/T790M/C797S (nM), 100 μM ATP
Label fulfilled when IC50 is strictly below 2 nM; at or above that, label not fulfilled.

compound | assignedClass
O=S(=O)(C1CC1)n1cc(-c2nccc(Nc3cc(NC[C@H]4CC[C@@H](O)C4)c(C#Cc4cnn(C(F)F)c4)cn3)n2)cn1 [Example 306] | not fulfilled
CC1(O)CCC(CNc2cc(Nc3ccnc(-c4cnn(S(=O)(=O)C5CC5)c4)n3)ncc2C#CC2CCCO2)CC1 (stereo not shown) [Example 377] | not fulfilled
CN(C)CC1(O)CCN(c2cc(Nc3ccnc(-c4cnn(S(=O)(=O)C5CC5)c4)n3)ncc2C#Cc2cnn(C(F)(F)F)c2)CC1 [Example 317] | not fulfilled
CN(C)CCn1cc(C#Cc2cnc(Nc3ccnc(-c4cnn(S(=O)(=O)C5CC5)c4)n3)cc2N2CCCC(CO)C2)cn1 (stereo not shown) [Example 118] | fulfilled
CC(=O)N1CCC(n2cc(C#Cc3cnc(Nc4ccnc(-c5cnn(S(=O)(=O)C6CC6)c5)n4)cc3N3CCC(NCCN(C)C)CC3)cn2)CC1 [Example 139] | fulfilled
CC1(CO)CCN(c2cc(Nc3ccnc(-c4cnn(S(=O)(=O)C5CC5)c4)n3)ncc2C#Cc2nc(C(F)(F)F)cs2)CC1 [Example 291] | not fulfilled
CC1(CO)CCN(c2cc(Nc3ccnc(-c4cnn(S(=O)(=O)C5CC5)c4)n3)ncc2C#Cc2cnn(CCN3CCOCC3)c2)CC1 [Example 232] | fulfilled
CC(C)(O)C1CCN(c2cc(Nc3ccnc(-c4cnn(S(=O)(=O)C5CC5)c4)n3)ncc2C#Cc2cnn(C(F)(F)F)c2)CC1 [Example 329] | not fulfilled
C#Cc1cnc(Nc2ccnc(-c3cnn(S(=O)(=O)C4CC4)c3)n2)cc1N1CCC(C)(CO)CC1 [Example 247] | fulfilled
CC(=O)N1CCC(n2cc(C#Cc3cnc(Nc4ccnc(-c5cnn(S(=O)(=O)C6CC6)c5)n4)cc3N3CCCC(O)C3)cn2)CC1 (stereo not shown) [Example 114] | fulfilled
O=S(=O)(C1CC1)N1CCC(C#Cc2cnc(Nc3ccnc(-c4cnn(S(=O)(=O)C5CC5)c4)n3)cc2NC2CCC(O)CC2)C1 (stereo not shown) [Example 394] | fulfilled
CC(C)n1cc(C#Cc2cnc(Nc3ccnc(-c4cnn(S(=O)(=O)C5CC5)c4)n3)cc2OC[C@H]2CC[C@H](CN(C)C)CC2)cn1 [Example 59] | fulfilled
CC1(CO)CCN(c2cc(Nc3ccnc(-c4cnn(S(=O)(=O)C5CC5)c4)n3)ncc2C#CC2CC2)CC1 [Example 250] | fulfilled
